# credit: patent US20260098072A1

# Test Description: TCMCB07 in plasma and cerebrospinal fluid after IV administration (blood-brain barrier transport)
# Format: in vivo, rat
# Condition Info: rat, plasma; 2 minutes post-intravenous administration, 750 nmol/kg; read-out: Concentration in plasma
Positions of bridges follow the written chain, without caps; N, C: chain ends. Non-standard residues stand in square brackets, D forms with d. Residues, ends and D or L forms follow the SMILES beside them. d2Nal = N[C@H](Cc1ccc2ccccc2c1)C(=O)O; Nle = CCCC[C@H](N)C(=O)O
Parameter Measured: level at time molar at 2 min
Put down the number, then write its unit next to it.

Which value of level at time molar at 2 min has been reported for CCCC[C@H](NC(C)=O)C(=O)N[C@H]1CC(=O)NCCCC[C@@H](C(=O)N[C@@H](C(=O)N2CCC[C@@H]2C(N)=O)C(C)C)NC(=O)[C@H](Cc2c[nH]c3ccccc23)NC(=O)[C@H](CCCN=C(N)N)NC(=O)[C@@H](Cc2ccc3ccccc3c2)NC(=O)[C@@H]2CCCN2C1=O [TCMCB07] (Ac-[Nle]DP[d2Nal]RWK[dV][dP]-NH2; lactam 2-7) in the records?
7 µM

###

# Subject Of Test: human MC3R (Homo sapiens)
# Construct: expressed in transfected cells; host or cells: HEK293/CRE-luc/MC3R
# Sequence (P41968 whole entry): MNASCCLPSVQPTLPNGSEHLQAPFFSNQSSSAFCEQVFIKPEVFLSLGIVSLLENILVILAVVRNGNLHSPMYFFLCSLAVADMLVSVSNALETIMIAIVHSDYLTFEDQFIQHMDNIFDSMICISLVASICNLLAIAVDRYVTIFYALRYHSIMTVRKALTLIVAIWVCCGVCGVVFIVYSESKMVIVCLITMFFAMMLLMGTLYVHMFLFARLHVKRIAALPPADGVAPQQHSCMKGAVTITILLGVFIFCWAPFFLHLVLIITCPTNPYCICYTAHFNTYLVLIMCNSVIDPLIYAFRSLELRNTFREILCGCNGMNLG
# Test Description: cAMP accumulation assay (HTRF), antagonist activity at MC3R
# Format: cell-based
# Condition Info: dose-response fit, MC3R
Positions of bridges follow the written chain, without caps; N, C: chain ends. Non-standard residues stand in square brackets, D forms with d. No end group written: not given here. d2Nal = N[C@H](Cc1ccc2ccccc2c1)C(=O)O; Nle = CCCC[C@H](N)C(=O)O
Listing of recorded Hill Coefficient by entry.

See these solved cases before continuing.
Substance	Subject Of Test	Hill Coefficient
Ac-Leu-c(Asp-Pro-Trp-Arg-Trp-Lys)-Val-Pro-NH2 (Ac-LDPWRWKVP-NH2; lactam 2-7; SMILES CC(=O)N[C@@H](CC(C)C)C(=O)N[C@H]1CC(=O)NCCCC[C@@H](C(=O)N[C@H](C(=O)N2CCC[C@H]2C(N)=O)C(C)C)NC(=O)[C@H](Cc2c[nH]c3ccccc23)NC(=O)[C@H](CCCNC(=N)N)NC(=O)[C@H](Cc2c[nH]c3ccccc23)NC(=O)[C@@H]2CCCN2C1=O) [Peptide C2]	human MC3R (Homo sapiens)	−0.48
VDPWRWKVP [Peptide C9]	human MC3R (Homo sapiens)	2.95

Turning now to a further record.
What is its Hill Coefficient for human MC3R (Homo sapiens)? Entry: Ac-Nle-c(Asp-His-Dnal(2′)-Arg-Trp-Pro-Lys)-Dval-Dpro-NH2 (Ac-[Nle]DH[d2Nal]RWPK[dV][dP]-NH2; lactam 2-8; SMILES CCCC[C@H](NC(C)=O)C(=O)N[C@H]1CC(=O)NCCCC[C@@H](C(=O)N[C@@H](C(=O)N2CCC[C@@H]2C(N)=O)C(C)C)NC(=O)[C@@H]2CCCN2C(=O)[C@H](Cc2c[nH]c3ccccc23)NC(=O)[C@H](CCCNC(=N)N)NC(=O)[C@@H](Cc2ccc3ccccc3c2)NC(=O)[C@H](Cc2c[nH]cn2)NC1=O) [Peptide D2]
0.84
